- procedure-summary: Percent change from control value for Vmax at 10 uM of the compound.
Could you please report measured Delta Vmax for the items listed next?
Respond with the bare value in %.

Could you please provide reported Delta Vmax for CCN(CC)C(CNC(=O)c1ccc(NS(C)(=O)=O)cc1)c1cccc2ccccc12 (stereo unspecified) ? Thanks!
-4

Name the recorded Delta Vmax of the compound listed here: CCN(CC)C(CNC(=O)c1ccc(NS(C)(=O)=O)cc1)c1ccccc1 (stereo unspecified)
-12

Answer with the recorded Delta Vmax for the compound listed here: `CCN(CC)CCN(C(=O)c1ccc(NS(C)(=O)=O)cc1)c1ccccc1.Cl`
-12

Give reported Delta Vmax value for CCN(CC)CCNC(=O)c1ccc(NS(C)(=O)=O)cc1 [SEMATILIDE]
0

Report measured Delta Vmax; entry is `CCN(CC)CCN(C(=O)c1ccc(NS(C)(=O)=O)cc1)c1ccc(Cl)cc1`
-8

Supply recorded Delta Vmax for CCN(CC)CC(NC(=O)c1ccc(NS(C)(=O)=O)cc1)c1ccccc1.Cl (stereo unspecified) here.
-13
